Biological target: ~100 representative kinases (Homo sapiens, UniProt Q9Y243)
Construct: Recombinant protein kinase domains with a concentration of 2 μM
Sequence (Q9Y243 whole entry, the tested form may be a part): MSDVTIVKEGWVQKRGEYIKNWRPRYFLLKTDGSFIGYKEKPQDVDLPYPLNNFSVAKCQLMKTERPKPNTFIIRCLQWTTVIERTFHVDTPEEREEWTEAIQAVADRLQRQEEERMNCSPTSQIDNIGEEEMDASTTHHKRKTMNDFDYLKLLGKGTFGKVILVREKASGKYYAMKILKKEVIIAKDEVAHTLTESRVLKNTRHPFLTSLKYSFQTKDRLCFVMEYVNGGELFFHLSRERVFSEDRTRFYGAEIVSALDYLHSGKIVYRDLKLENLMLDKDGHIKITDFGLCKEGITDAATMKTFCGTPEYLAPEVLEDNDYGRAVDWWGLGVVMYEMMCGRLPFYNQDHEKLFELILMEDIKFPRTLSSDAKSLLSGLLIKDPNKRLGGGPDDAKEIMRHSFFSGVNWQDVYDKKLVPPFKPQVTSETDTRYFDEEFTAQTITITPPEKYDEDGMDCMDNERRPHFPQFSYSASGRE
Assay: DSF 100 kinase selectivity screen;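 note: compound tested at 20 µM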
Assay type: binding
Conditions: Protein AKT3; average of three replicates
Cut-off 0.3 K on dTm: below means criterion met, at or above means criterion not met.

Worked cases, answers included:
O=C(Nc1cccc(-c2c[nH]c3ncnc(N4CCOCC4)c23)c1)C1(C(=O)Nc2ccc(F)c(Br)c2)CC1 ... criterion met
O=C(Nc1ccc(Cl)cc1)C1(C(=O)Nc2cccc(-c3c[nH]c4ncnc(N5CCOCC5)c34)c2)CC1 ... criterion not met
Cc1ccc(NC(=O)C2(C(=O)Nc3cccc(-c4c[nH]c5ncnc(N6CCOCC6)c45)c3)CC2)cc1 ... criterion not met
CC(C)(C)c1cc(NC(=O)Nc2cccc(-c3c[nH]c4ncnc(N5CCOCC5)c34)c2)n(-c2ccc3ncccc3c2)n1 ... criterion not met
Cc1ccc(-n2nc(C(C)(C)C)cc2NC(=O)Nc2cccc(-c3c[nH]c4ncnc(N5CCOCC5)c34)c2)cc1 ... criterion met

Query :: Please check: dTm for Cc1ccc(C(=O)Nc2ccc(CN3CCN(C)CC3)c(C(F)(F)F)c2)cc1C#Cc1cnc2[nH]ncc2c1 [GZD-824, reference compound] , strictly under 0.3 K or not?
Result :: criterion met

Query :: Please check: dTm for Cc1ccc(C(=O)Nc2ccc(CN3CCN(C)CC3)c(C(F)(F)F)c2)cc1C#Cc1c[nH]c2ncnc(N3CCOCC3)c12 , strictly under 0.3 K or not?
Result :: criterion met
